Source: patent US5298492A

Observed log10 of IC50 values for ACE (angiotensin converting enzyme) (Homo sapiens, UniProt P12821) are listed in what follows.
Field: value | Transform: log10 | Quantity: IC50 | Unit: nM

// solved cases for log10 of IC50 follow
CCN=C(NCC)NCCCC[C@H](NS(C)(=O)=O)C(=O)NC[C@H](N[C@@H](Cc1ccccc1)C(=O)N[C@@H](Cc1ccc(O)cc1)C(=O)O)C(=O)O :: 0.90
CS(=O)(=O)Nc1cccc(C[C@H](NC(=O)[C@H](Cc2ccccc2)N[C@@H](CNC(=O)[C@H](CCCCN)NS(C)(=O)=O)C(=O)O)C(=O)O)c1 :: 1.18

State the recorded log10 of IC50 for every item in the following list.
1. CC(C)[C@H](N[C@@H](CNC(=O)[C@H](CCCCNC(=O)OCc1ccccc1)NS(C)(=O)=O)C(=O)O)C(=O)N[C@@H](Cc1ccc(O)cc1)C(=O)O
2. NCCCCCC(=O)NC[C@H](N[C@@H](Cc1ccccc1)C(=O)N[C@@H](Cc1ccc(O)cc1)C(=O)O)C(=O)O [drawing 100: R1=H; R5=OH; R6=OH; Z=NH2]
3. CS(=O)(=O)N[C@@H](CCCCN)C(=O)NC[C@H](N[C@H](C(=O)N[C@@H](Cc1ccc(O)cc1)C(=O)O)C1CCCCC1)C(=O)O

[reply]
1: 1.48; 2: 1.78; 3: 2.08

List reported log10 of IC50 for each of these molecules:
1. CS(=O)(=O)N[C@@H](CCCCN)C(=O)NC[C@H](N[C@@H](Cc1ccccc1)C(=O)N[C@@H](Cc1ccc(O)cc1)C(=O)O)C(=O)O [drawing 100: R1=CH3SO2NH; R5=OH; R6=OH; Z=NH2]
2. CCC[C@H](N[C@@H](CNC(=O)[C@H](CCCCNC(=O)OCc1ccccc1)NS(C)(=O)=O)C(=O)O)C(=O)N[C@@H](Cc1ccc(O)cc1)C(=O)OC

[reply]
1. 1.70
2. 2.48

[ask] Please provide the recorded log10 of IC50 for O=C(CCCCCNC(=O)OCc1ccccc1)NC[C@H](N[C@@H](Cc1ccccc1)C(=O)N[C@@H](Cc1ccc(O)cc1)C(=O)O)C(=O)O [drawing 100: R1=H; R5=OH; R6=OH; Z=CbzNH] , tested on ACE (angiotensin converting enzyme) (Homo sapiens, UniProt P12821).
Sequence (P12821 30-1306, species assumed): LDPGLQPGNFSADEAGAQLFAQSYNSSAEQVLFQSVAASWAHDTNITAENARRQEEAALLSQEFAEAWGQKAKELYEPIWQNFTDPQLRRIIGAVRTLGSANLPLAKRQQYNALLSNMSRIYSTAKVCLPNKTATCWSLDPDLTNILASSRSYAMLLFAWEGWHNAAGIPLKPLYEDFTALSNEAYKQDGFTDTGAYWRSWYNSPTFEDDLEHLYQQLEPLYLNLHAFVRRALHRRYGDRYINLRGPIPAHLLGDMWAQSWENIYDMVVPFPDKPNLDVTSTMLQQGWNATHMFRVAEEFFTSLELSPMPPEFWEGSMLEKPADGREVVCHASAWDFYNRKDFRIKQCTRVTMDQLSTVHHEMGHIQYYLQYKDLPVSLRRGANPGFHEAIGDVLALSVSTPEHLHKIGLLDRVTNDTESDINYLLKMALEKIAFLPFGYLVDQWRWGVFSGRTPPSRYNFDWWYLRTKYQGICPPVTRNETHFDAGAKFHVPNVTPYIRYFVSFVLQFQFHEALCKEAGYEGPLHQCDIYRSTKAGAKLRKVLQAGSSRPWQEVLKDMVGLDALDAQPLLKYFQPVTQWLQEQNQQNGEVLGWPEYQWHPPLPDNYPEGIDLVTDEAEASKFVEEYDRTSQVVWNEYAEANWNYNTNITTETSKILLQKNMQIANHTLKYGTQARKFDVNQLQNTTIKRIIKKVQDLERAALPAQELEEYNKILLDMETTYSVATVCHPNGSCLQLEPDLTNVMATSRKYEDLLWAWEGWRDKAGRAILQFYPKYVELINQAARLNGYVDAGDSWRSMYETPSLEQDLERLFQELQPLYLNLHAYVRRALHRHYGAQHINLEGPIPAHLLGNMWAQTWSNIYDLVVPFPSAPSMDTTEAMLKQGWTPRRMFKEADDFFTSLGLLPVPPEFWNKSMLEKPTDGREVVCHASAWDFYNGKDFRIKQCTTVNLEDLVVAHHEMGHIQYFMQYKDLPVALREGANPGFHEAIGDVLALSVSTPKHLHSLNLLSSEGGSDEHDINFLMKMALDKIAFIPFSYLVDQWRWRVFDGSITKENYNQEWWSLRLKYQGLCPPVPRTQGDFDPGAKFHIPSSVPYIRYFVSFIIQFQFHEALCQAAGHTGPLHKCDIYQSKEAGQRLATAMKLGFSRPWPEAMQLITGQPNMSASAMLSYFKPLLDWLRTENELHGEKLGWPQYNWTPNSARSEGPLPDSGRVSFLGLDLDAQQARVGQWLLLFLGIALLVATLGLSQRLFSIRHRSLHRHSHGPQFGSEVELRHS
[reply] 1.81

---

- system.tested: UniProtKB P08473
Please use rule met for IC50 under 70 nM and rule not met for everything else, ties included.

CC(C)[C@H](N[C@@H](CNC(=O)[C@H](CCCCNC(=O)OCc1ccccc1)NS(C)(=O)=O)C(=O)O)C(=O)N[C@@H](Cc1ccc(O)cc1)C(=O)O :: rule met
O=C(CCCCCNC(=O)OCc1ccccc1)NC[C@H](N[C@@H](Cc1ccccc1)C(=O)N[C@@H](Cc1ccc(O)cc1)C(=O)O)C(=O)O [drawing 100: R1=H; R5=OH; R6=OH; Z=CbzNH] :: rule met

[ask] Regarding CCC[C@H](N[C@@H](CNC(=O)[C@H](CCCCN)NS(C)(=O)=O)C(=O)O)C(=O)N[C@@H](Cc1ccc(O)cc1)C(=O)OC , kindly confirm whether its IC50 is beneath 70 nM.
[reply] rule not met

[ask] Does CS(=O)(=O)N[C@@H](CCCCN)C(=O)NC[C@H](N[C@H](C(=O)N[C@@H](Cc1ccc(O)cc1)C(=O)O)C1CCCCC1)C(=O)O have IC50 strictly under 70 nM?
[reply] rule not met

[ask] Consider the compound CS(=O)(=O)N[C@@H](CCCCN)C(=O)NC[C@H](NC1(C(=O)N[C@@H](Cc2ccc(O)cc2)C(=O)O)CCCC1)C(=O)O . Is its IC50 strictly less than 70 nM?
[reply] rule met

[ask] Report whether reported IC50 is lower than 70 nM (strictly) for CS(=O)(=O)N[C@@H](CCCCN)C(=O)NC[C@H](N[C@@H](Cc1ccccc1)C(=O)N[C@@H](Cc1ccc(O)cc1)C(=O)O)C(=O)O [drawing 100: R1=CH3SO2NH; R5=OH; R6=OH; Z=NH2]
[reply] rule met

[ask] Consider the compound COC(=O)[C@H](CNC(=O)[C@H](CCCCN)NS(C)(=O)=O)N[C@H](C(=O)N[C@@H](Cc1ccc(O)cc1)C(=O)O)C(C)C . Is its IC50 strictly less than 70 nM?
[reply] rule not met

---

Would you mind telling me the reported IC50 of each entry?
- system.tested: NEP (neutral endopeptidase) (Homo sapiens, UniProt P08473)
- Sequence (P08473 whole entry, species assumed): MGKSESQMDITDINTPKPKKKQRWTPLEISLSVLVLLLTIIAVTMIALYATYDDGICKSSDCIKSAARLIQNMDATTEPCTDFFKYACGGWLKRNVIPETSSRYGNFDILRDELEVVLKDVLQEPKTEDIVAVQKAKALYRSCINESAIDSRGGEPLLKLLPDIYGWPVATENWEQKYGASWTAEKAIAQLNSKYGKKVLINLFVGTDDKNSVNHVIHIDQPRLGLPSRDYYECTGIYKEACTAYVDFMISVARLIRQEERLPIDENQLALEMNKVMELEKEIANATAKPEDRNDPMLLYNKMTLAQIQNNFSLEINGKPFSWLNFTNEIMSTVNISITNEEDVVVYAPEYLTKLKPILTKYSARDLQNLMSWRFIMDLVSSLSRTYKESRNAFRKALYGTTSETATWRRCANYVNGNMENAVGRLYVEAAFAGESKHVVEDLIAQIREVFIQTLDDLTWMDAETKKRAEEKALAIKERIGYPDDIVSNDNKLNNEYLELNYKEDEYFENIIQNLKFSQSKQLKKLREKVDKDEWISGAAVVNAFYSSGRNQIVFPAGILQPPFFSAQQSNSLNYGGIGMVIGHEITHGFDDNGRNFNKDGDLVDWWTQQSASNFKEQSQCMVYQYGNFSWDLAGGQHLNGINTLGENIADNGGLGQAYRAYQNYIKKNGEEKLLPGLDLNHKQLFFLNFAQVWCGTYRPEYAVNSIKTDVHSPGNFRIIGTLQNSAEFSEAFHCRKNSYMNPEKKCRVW
Numbers only, in nM.

CS(=O)(=O)N[C@@H](CCCCNC(=O)OCc1ccccc1)C(=O)NC[C@H](N[C@@H](Cc1ccccc1)C(=O)N[C@@H](Cc1ccc(O)cc1)C(=O)O)C(=O)O :: 18

Field: next compound
[ask] Give the reported IC50 for CS(=O)(=O)N[C@@H](CCCCN)C(=O)NC[C@H](NC(C(=O)N[C@@H](Cc1ccc(O)cc1)C(=O)O)C1CC1)C(=O)O (single isomer, unassigned) (system: NEP (neutral endopeptidase) (Homo sapiens, UniProt P08473)).
[reply] 40

---

- system.tested: NEP (neutral endopeptidase) (Homo sapiens, UniProt P08473)
Give IC50 for every item shown.
Show the value, then the unit it is measured in.

Examples from the recorded data:
CS(=O)(=O)N[C@@H](CCCCN)C(=O)NC[C@H](N[C@@H](Cc1ccccc1)C(=O)N[C@@H](Cc1ccc(O)cc1)C(=O)OCCc1ccccc1)C(=O)O :: 68 nM
CC(C)[C@H](N[C@@H](CNC(=O)[C@H](CCCCN)NS(C)(=O)=O)C(=O)O)C(=O)N[C@@H](Cc1ccc(O)cc1)C(=O)O :: 7 nM
CS(=O)(=O)N[C@@H](CCCCN)C(=O)NC[C@H](NC1(C(=O)N[C@@H](Cc2ccc(O)cc2)C(=O)O)CCCCC1)C(=O)O :: 190 nM

List the reported IC50 of each compound below.
1. CCOC(=O)[C@H](CNC(=O)[C@H](CCCCN)NS(C)(=O)=O)N[C@@H](Cc1ccccc1)C(=O)N[C@@H](Cc1ccc(O)cc1)C(=O)O
2. NCCCCCC(=O)NC[C@H](N[C@@H](Cc1ccccc1)C(=O)N[C@@H](Cc1ccc(O)cc1)C(=O)O)C(=O)O [drawing 100: R1=H; R5=OH; R6=OH; Z=NH2]

[reply]
1: 300 nM; 2: 16 nM
